# Test system: RAW-Dual (murine macrophage reporter line)
# EXPERIMENT_SUMMARY: NF-kB reporter (SEAP) activity fold change vs agonist alone; higher = enhanced NF-kB activity
# RECORDED_CONDITIONS: modulator concentration 10 µM; agonist: MPLA […]
REPORTED_PROPERTY: NF-kB reporter
I only need the number, thanks.

In the examples that follow, each entry is paired with its recorded NF-kB reporter.
COCCN(CCOC)C(=O)Cc1csc2nc(-c3ccc(F)cc3)cn12 = 0.949
CCN(CC)Cc1cc(Nc2ccnc3cc(Cl)ccc23)ccc1O.Cl.Cl.O.O = 0.944
CS(=O)(=O)N(CC(=O)N1CCCCCC1)c1ccc(Cl)c(C(F)(F)F)c1 = 0.958
CC(=O)N[C@H]1[C@H]([C@H](O)[C@H](O)CO)OC(C(=O)O)=C[C@@H]1NC(=N)N = 1.02

Record `CC1(C)CC(=O)C2=C(C1)OC(N)=C(C#N)C21CCCCC1` : what is its NF-kB reporter with RAW-Dual (murine macrophage reporter line)? 0.895

###

# Test system: RAW-Dual (murine macrophage reporter line)
# EXPERIMENT_SUMMARY: IRF reporter (Lucia luciferase) activity fold change vs agonist alone; higher = enhanced IRF activity
# RECORDED_CONDITIONS: modulator concentration 10 µM; agonist: MPLA […]
REPORTED_PROPERTY: IRF reporter
Output spec: single numeric token, no unit.

S=C(NCc1ccc2c(c1)OCO2)N1CCN(c2ncnc3c2oc2ccccc23)CC1 = 1.96
CCN(CC)c1ccc2cc(-c3nnc(NCc4ccc(F)cc4)s3)c(=O)oc2c1 = 0.981
CCN(CC)CCOC(=O)C(c1ccccc1)C1CCCCC1.Cl (stereo not drawn) = 1.52
CCOc1ccc(Nc2oc(-c3ccc(COc4ccc(C)cc4)o3)nc2C#N)cc1 = 1.67
CCOC(=O)C1=C(C)OC(N)=C(C#N)C1c1ccc(O)c(OCC)c1 (stereo not drawn) = 1.16

Which value of IRF reporter has been reported for `COC(=O)c1ccc(N2C(=O)c3ccc(Oc4cccc([N+](=O)[O-])c4)cc3C2=O)cc1` in the records? 1.71

Lookup CCOC(=O)C1=C(COCCN)NC(C)=C(C(=O)OC)C1c1ccccc1Cl.O=S(=O)(O)c1ccccc1 (stereo not drawn) 5.89

What do we get for `COc1cc(Br)c(C=C(C#N)c2nn(-c3ccccc3)c(N)c2C#N)cc1OC` ? 1.18

What do you have for `C=CCc1ccc(OCCCOc2ccccc2C(C)=O)c(OC)c1` ? 1.07

Then `O=C(CCCCCN1C(=O)c2cccc3cccc(c23)C1=O)NO` ? 0.632

Repeat with `O=C(NCCN1CCOCC1)c1ccccc1Br` 0.897

Another compound to check: COC(C(=O)NNC(=O)c1ccccc1Cl)c1ccccc1 (stereo not drawn) 0.863

Then this compound: `CC(C)(C)C(=O)Oc1ccc(S(=O)(=O)Nc2ccccc2C(=O)NCC(=O)O)cc1` 1.38

Also, `COc1cc(C=NNc2ccc(C(=O)O)cc2)cc(Br)c1O` please. 0.223

Try this compound too: `Cc1c(OCc2ccc(Cl)cc2)ccc2c(C(F)(F)F)cc(=O)oc12` 1.07

Further, for `COc1ccc(NC(=O)CN(c2ccc(C)c(C)c2)S(C)(=O)=O)cc1Cl` ? 0.858
